System: Sphingomyelin phosphodiesterase 3 (Rattus norvegicus)
Sequence (O35049 whole entry): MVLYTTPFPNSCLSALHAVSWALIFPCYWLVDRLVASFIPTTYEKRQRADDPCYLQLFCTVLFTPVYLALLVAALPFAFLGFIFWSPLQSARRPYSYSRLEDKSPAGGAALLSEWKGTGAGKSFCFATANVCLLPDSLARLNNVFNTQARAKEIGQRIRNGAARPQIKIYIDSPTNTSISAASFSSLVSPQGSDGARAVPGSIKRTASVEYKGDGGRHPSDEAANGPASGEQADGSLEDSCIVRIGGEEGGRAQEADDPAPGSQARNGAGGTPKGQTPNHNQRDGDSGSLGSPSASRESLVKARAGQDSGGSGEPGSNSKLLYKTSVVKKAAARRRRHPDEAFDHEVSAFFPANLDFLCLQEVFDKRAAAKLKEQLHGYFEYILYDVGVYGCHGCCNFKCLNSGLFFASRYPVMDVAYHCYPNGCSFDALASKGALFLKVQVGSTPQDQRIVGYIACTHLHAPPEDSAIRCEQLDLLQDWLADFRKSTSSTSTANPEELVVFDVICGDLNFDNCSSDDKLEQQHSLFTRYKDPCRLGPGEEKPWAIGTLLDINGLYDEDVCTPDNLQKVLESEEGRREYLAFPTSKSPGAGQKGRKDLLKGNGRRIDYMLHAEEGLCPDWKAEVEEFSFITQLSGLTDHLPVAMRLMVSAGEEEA
Quantity Name: pIC50
pIC50 here: minus log base 10 of the concentration, concentration in moles per litre.

Ask: Item under review: O=C(/C=C\c1ccc(/C=C\C(=O)Nc2ccc(C3=NCCN3)cc2)cc1)Nc1ccc(C2=NCCN2)cc1 . Reported pIC50?
Reply: 6.00

---

Assay Remarks: Metabolic stability in human liver microsomes assessed as parent compound remaining at 5 uM in presence of NADPH regenerating system measured after 1 hr by LC/MS/MS method
Assay type: ADME, Microsome
Quantity Name: Stability (%)
Use % as the unit, but write only the number.

Ask: Item under review: COc1cc(-c2nc(C)c(-c3ccccc3)[nH]2)cc(OC)c1O . Reported Stability?
Reply: 95

Ask: Would you mind doing COc1cc(-c2nc(-c3cccs3)c(-c3ccccc3)[nH]2)cc(OC)c1O as well?
Reply: 95

Ask: Would you mind doing Oc1c(OCC(F)(F)F)cc(-c2nc(-c3ccccc3)c(-c3cccs3)[nH]2)cc1OCC(F)(F)F as well?
Reply: 94

Ask: Would you mind doing COc1cc(-c2nc(-c3cccs3)c(C)[nH]2)cc(OC)c1O as well?
Reply: 73

Ask: Would you mind doing COc1ccc(-c2nc(-c3cc(OC)c(O)c(OC)c3)[nH]c2-c2ccc(OC)cc2)cc1 as well?
Reply: 75
